Biological target: NRAS G12C (Homo sapiens (Human), UniProt P01111+P62937, G12C)
Sequence (P01111 whole entry G12C): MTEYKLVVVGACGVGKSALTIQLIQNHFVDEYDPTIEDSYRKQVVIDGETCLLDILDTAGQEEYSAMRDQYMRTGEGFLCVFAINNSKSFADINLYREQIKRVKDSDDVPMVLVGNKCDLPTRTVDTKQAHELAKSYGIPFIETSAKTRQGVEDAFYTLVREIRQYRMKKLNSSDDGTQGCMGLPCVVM
Sequence (P62937 whole entry): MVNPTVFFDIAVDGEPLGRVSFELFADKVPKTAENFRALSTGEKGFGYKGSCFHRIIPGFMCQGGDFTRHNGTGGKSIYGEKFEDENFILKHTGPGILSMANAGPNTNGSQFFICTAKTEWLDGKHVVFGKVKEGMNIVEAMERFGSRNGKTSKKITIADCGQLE
Assay: Ras-Raf (BRAF RBD) disruption / FRET / MOA assay, NRAS G12C
Type: biochemical
Conditions: read-out: IC50* NRAS G12C FRET data
pIC50: −log10 of the molar value.
Observable: pIC50

Before answering, review these 10 worked examples.
| Molecule | Target | pIC50 |
| --- | --- | --- |
| C=CC(=O)N1C[C@@H](C(=O)N(C)[C@H](C(=O)N[C@H]2Cc3cc(O)cc(c3)-c3ccc4c(c3)c(c(-c3cccnc3COC)n4CC)CC(C)(C)COC(=O)[C@@H]3CCCN(N3)C2=O)C(C)C)C[C@H]1C [Example A158] | NRAS G12C (Homo sapiens (Human), UniProt P01111+P62937, G12C) | 7.00 to 8.00 |
| CCn1c(-c2cccnc2COC)c2c3cc(ccc31)-c1cc(O)cc(c1)C[C@H](NC(=O)[C@H](C(C)C)N(C)C(=O)[C@H]1CCN(C(=O)C#CCN3CCN(C)CC3)C1)C(=O)N1CCC[C@H](N1)C(=O)OCC(C)(C)C2 [Example A189] | NRAS G12C (Homo sapiens (Human), UniProt P01111+P62937, G12C) | 7.00 to 8.00 |
| C=CC(=O)N1CC[C@H](C(=O)N(C)[C@H](C(=O)N[C@H]2Cc3cc(cc(C(F)F)c3)-c3ccc4c(c3)c(c(-c3cc(N5CCN(C)CC5)cnc3[C@H](C)OC)n4CC(F)(F)F)CC(C)(C)COC(=O)[C@@H]3CCCN(N3)C2=O)C(C)C)C1 (atropisomer, axis not shown) [Example A357] | NRAS G12C (Homo sapiens (Human), UniProt P01111+P62937, G12C) | 6.00 to 7.00 |
| CCn1c(-c2cccnc2[C@H](C)OC)c2c3cc(ccc31)-c1cccc(c1)C[C@H](NC(=O)[C@H](C(C)C)N1CC[C@@]3(CCN(C(=O)C#CC(C)(C)N(C)C)C3)C1=O)C(=O)N1CCC[C@H](N1)C(=O)OCC(C)(C)C2 (atropisomer, axis not shown) [Example A414] | NRAS G12C (Homo sapiens (Human), UniProt P01111+P62937, G12C) | > 8.00 |
| C=CC(=O)N1CC[C@H](C(=O)N(C)[C@H](C(=O)N[C@H]2CN3CCC=C(C3)c3ccc4c(c3)c(c(-c3cccnc3[C@H](C)OC)n4CC)CC(C)(C)COC(=O)[C@@H]3CCCN(N3)C2=O)C(C)C)C1 (atropisomer, axis not shown) [Example A716] | NRAS G12C (Homo sapiens (Human), UniProt P01111+P62937, G12C) | 6.00 to 7.00 |
| C=CC(=O)N1CC[C@H](C(=O)N(C)[C@H](C(=O)N[C@H]2Cc3nc(cs3)-c3ccc4c(n3)c(c(-c3cccnc3[C@H](C)OC)n4CC)CC(C)(C)COC(=O)[C@@H]3CCCN(N3)C2=O)C(C)C)C1 [Example A347] | NRAS G12C (Homo sapiens (Human), UniProt P01111+P62937, G12C) | 6.00 to 7.00 |
| CCn1c(-c2cccnc2[C@H](C)OC)c2c3cc(ccc31)-c1cccc(c1)C[C@H](NC(=O)[C@@H](COC1CN(C(=O)C#C[C@H]3COCCN3C)C1)C(C)C)C(=O)N1CCC[C@H](N1)C(=O)OCC(C)(C)C2 (atropisomer, axis not shown) [Example A644] | NRAS G12C (Homo sapiens (Human), UniProt P01111+P62937, G12C) | 7.00 to 8.00 |
| C=CC(=O)N1CCC[C@H]2CN(C(=O)N(C)[C@H](C(=O)N[C@H]3Cc4nc(cs4)-c4ccc5c(c4)c(c(-c4cccnc4[C@H](C)OC)n5CC)CC(C)(C)COC(=O)[C@@H]4CCCN(N4)C3=O)C(C)C)C[C@H]21 (atropisomer, axis not shown) [Example A618] | NRAS G12C (Homo sapiens (Human), UniProt P01111+P62937, G12C) | 6.00 to 7.00 |
| C=CC(=O)N1CCC[C@@H]2CN(C(=O)N(C)[C@H](C(=O)N[C@H]3Cc4nc(cs4)-c4ccc5c(c4)c(c(-c4cccnc4[C@H](C)OC)n5CC)CC(C)(C)COC(=O)[C@@H]4CCCN(N4)C3=O)C(C)C)C[C@@H]21 (atropisomer, axis not shown) [Example A619] | NRAS G12C (Homo sapiens (Human), UniProt P01111+P62937, G12C) | 6.00 to 7.00 |
| CCn1c(-c2cccnc2[C@H](C)OC)c2c3cc(ccc31)-c1cccc(c1)C[C@H](NC(=O)[C@H](C(C)C)N1CO[C@]3(CCN(C(=O)C#CC(C)(C)N4CCC4)C3)C1=O)C(=O)N1CCC[C@H](N1)C(=O)OCC(C)(C)C2 (atropisomer, axis not shown) [Example A351] | NRAS G12C (Homo sapiens (Human), UniProt P01111+P62937, G12C) | > 8.00 |

Hey, quick one: what's pIC50 for each of these?
1. C=CC(=O)N(C)[C@H]1CCN(C(=O)N(C)[C@H](C(=O)N[C@H]2Cc3nc(cs3)-c3ccc4c(c3)c(c(-c3cccnc3[C@H](C)OC)n4CC)CC(C)(C)COC(=O)[C@@H]3CCCN(N3)C2=O)C(C)C)C1 (atropisomer, axis not shown) [Example A384]
2. C=CC(=O)N1CC[C@H](C(=O)N(C)[C@H](C(=O)N[C@H]2Cc3cc(O)cc(c3)-c3ccc4c(c3)c(c(-c3c(C)cccc3C)n4CC)CC(C)(C)COC(=O)[C@@H]3CCCN(N3)C2=O)C(C)C)C1 [Example A226]
3. C=CC(=O)N1CC[C@H](C(=O)N(C)[C@H](C(=O)N[C@H]2Cc3cccc(c3)-c3ccc4c(c3)c(c(-c3cccnc3[C@H](C)OC)n4CC3COC3)CC(C)(C)COC(=O)[C@@H]3CCCN(N3)C2=O)C(C)C)C1 (atropisomer, axis not shown) [Example A481]
4. CCn1c(-c2ccccc2CN(C)C)c2c3cc(ccc31)-c1cc(O)cc(c1)C[C@H](NC(=O)[C@@H](C(C)C)N(C)C(=O)c1ncc(NC(=O)/C=C/CN(C)C)n1C)C(=O)N1CCC[C@H](N1)C(=O)OCC(C)(C)C2 [Example A126]
5. C=CC(=O)N1CCC(F)(C(=O)N(C)[C@H](C(=O)N[C@H]2Cc3nc(cs3)-c3ccc4c(c3)c(c(-c3cccnc3[C@H](C)OC)n4CC)CC(C)(C)COC(=O)[C@@H]3CCCN(N3)C2=O)C(C)C)CC1 (atropisomer, axis not shown) [Example A700]

Resp:
["7.00 to 8.00", "6.00 to 7.00", "6.00 to 7.00", "7.00 to 8.00", "7.00 to 8.00"]
